Measured log10 of IC50 by item
Target: Neuropeptide Y receptor type 2 (Homo sapiens, UniProt P49146)
Sequence (P49146 whole entry): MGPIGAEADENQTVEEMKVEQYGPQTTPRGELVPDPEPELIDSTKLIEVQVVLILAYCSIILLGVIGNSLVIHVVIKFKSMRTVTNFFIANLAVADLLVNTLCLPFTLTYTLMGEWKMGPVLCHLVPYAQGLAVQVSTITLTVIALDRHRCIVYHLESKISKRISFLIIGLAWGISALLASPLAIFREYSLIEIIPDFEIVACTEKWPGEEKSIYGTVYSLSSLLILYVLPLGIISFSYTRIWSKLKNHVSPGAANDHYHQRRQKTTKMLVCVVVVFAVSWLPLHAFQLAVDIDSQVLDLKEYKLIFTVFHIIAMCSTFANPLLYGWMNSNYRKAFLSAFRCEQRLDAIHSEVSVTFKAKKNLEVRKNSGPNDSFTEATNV
Test: Affinity against Neuropeptide Y receptor Y2 in SK-N-BE2 cell line
Scale type: logarithmic (base 10). Underlying IC50 unit: nM.

Example cases with answers are listed next.
Ac-FSLRHFLNLVTRQRY-NH2 : 0.75
Ac-ASLRHFLNLVTRQRF-NH2 : 0.06
Ac-ASLRHYWNLVTRQRY-NH2 : 0.32

Ask | Quick check: log10 of IC50 of "Ac-ASLRHYLWLVTRQRY-NH2" ?
Reply | 2.20

Ask | May I ask what log10 of IC50 has been recorded for "Ac-ASLRHFLNLVTRQRY-NH2" ?
Reply | 0.26

Ask | Record request: log10 of IC50 value, item "Ac-ASLRHYWNWVTRQRY-NH2"
Reply | 0.50

Ask | Sample "Ac-ASLRAFLNLVTRQRY-NH2" — what was its log10 of IC50?
Reply | 0.58

Ask | Suppose we examine the substance "Ac-YSLRHFLNLVTRQRY-NH2" ; what log10 of IC50 value has been reported?
Reply | 0.43

Ask | Name the recorded log10 of IC50 for "Ac-ASLRHWLNLVTRQRY-NH2" .
Reply | 0.32

---

Molecular target: UniProt:P49146
Experiment: Affinity against Neuropeptide Y receptor Y2 in SK-N-BE2 cell line
Where a SMILES comes first, the peptide text is derived from it. [ ]: non-standard residue; d: D form. 1Nal = N[C@@H](Cc1cccc2ccccc12)C(=O)O
Reported values of pIC50 for individual entries
pIC50 (log units): -log10 of the concentration in mol/L.

CC(=O)N[C@@H](C)C(=O)N[C@@H](CO)C(=O)N[C@@H](CC(C)C)C(=O)N[C@@H](CCCN=C(N)N)C(=O)N[C@@H](Cc1c[nH]cn1)C(=O)N[C@H](CN[C@@H](CC(C)C)C(=O)N[C@@H](CC(N)=O)C(=O)N[C@@H](CC(C)C)C(=O)N[C@H](C(=O)N[C@H](C(=O)N[C@@H](CCCN=C(N)N)C(=O)N[C@@H](CCC(N)=O)C(=O)N[C@@H](CCCN=C(N)N)C(=O)N[C@@H](Cc1ccc(O)cc1)C(N)=O)[C@@H](C)O)C(C)C)Cc1ccc(O)cc1 : 6.06

Ask | Which measured pIC50 value corresponds to CC(=O)N[C@@H](C)C(=O)N[C@@H](CO)C(=O)N[C@@H](CC(C)C)C(=O)N[C@@H](CCCN=C(N)N)C(=O)N[C@@H](Cc1c[nH]cn1)C(=O)N[C@@H](Cc1cccc2ccccc12)C(=O)N[C@@H](CC(C)C)C(=O)N[C@@H](CC(N)=O)C(=O)N[C@@H](CC(C)C)C(=O)N[C@H](C(=O)N[C@H](C(=O)N[C@@H](CCCN=C(N)N)C(=O)N[C@@H](CCC(N)=O)C(=O)N[C@@H](CCCN=C(N)N)C(=O)N[C@@H](Cc1ccc(O)cc1)C(N)=O)[C@@H](C)O)C(C)C (Ac-ASLRH[1Nal]LNLVTRQRY-NH2) ?
Reply | 8.15

---

Molecular target: Neuropeptide Y receptor type 1 (Homo sapiens, UniProt P25929)
Sequence (P25929 whole entry): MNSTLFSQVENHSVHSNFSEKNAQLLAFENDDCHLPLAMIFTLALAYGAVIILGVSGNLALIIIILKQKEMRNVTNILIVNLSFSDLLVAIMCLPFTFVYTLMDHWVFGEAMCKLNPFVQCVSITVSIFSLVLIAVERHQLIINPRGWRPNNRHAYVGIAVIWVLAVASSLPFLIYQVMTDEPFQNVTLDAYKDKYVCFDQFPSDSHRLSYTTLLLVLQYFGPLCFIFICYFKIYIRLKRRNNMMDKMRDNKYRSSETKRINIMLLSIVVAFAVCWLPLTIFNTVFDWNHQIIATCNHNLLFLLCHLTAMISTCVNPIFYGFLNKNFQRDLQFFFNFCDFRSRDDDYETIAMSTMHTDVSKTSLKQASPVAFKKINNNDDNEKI
Assay: Affinity against Neuropeptide Y receptor Y1 in SK-N-MC cell line
Format: cell-based
Where a SMILES comes first, the peptide text is derived from it. The star is where a group is joined. Argψ(CH2NH)TyrNH2 = N=C(N)NCCC[C@@H](CN[C@@H](Cc1ccc(O)cc1)C(N)=O)N*
experimental.endpoint: IC50

Ask | Sample CC(=O)N[C@@H](C)C(=O)N[C@@H](CO)C(=O)N[C@@H](CC(C)C)C(=O)N[C@@H](CCCNC(=N)N)C(=O)N[C@@H](Cc1cnc[nH]1)C(=O)N[C@@H](Cc1c[nH]c2ccccc12)C(=O)N[C@@H](CC(C)C)C(=O)N[C@@H](CC(N)=O)C(=O)N[C@@H](CC(C)C)C(=O)N[C@H](C(=O)N[C@H](C(=O)N[C@@H](CCCNC(=N)N)C(=O)N[C@@H](CCC(N)=O)C(=O)N[C@@H](CCCNC(=N)N)CN[C@@H](Cc1ccc(O)cc1)C(N)=O)[C@@H](C)O)C(C)C (Ac-ASLRHWLNLVTRQ-{Argψ(CH2NH)TyrNH2}) — what was its IC50?
Reply | > 1000 nM
